System: receptors for benzodiazepins
Assay Name: displacement of 3H-flunitrazepam from benzodiazepine receptors, rat cerebral cortex membranes
Assay type: binding
Measurement Parameters: 3H-flunitrazepam 1nM
Structures can show the parent of a compound that is named as a salt.
Result Type: Displacement activity at benzodiazepine receptors

{"columns": ["Compound", "Result"],
 "data": [
  ["CN1[C@@H]2CC[C@H]1C[C@@H](OC(=O)c1c[nH]c3ccccc13)C2 [R, 3-endo-tropanyl indol-3-yl carboxylate, reference compound]", "1,000"],
  ["Cc1cc(C(=O)O[C@H]2C[C@H]3CC[C@@H](C2)N3C)no1 [Compound 8, hydrochloride]", "inactive"],
  ["Cc1cc(C(=O)O[C@H]2C[C@H]3CC[C@@H](C2)N3C)on1 [Compound 5, hydrochloride]", "inactive"],
  ["CN1C(=O)CN=C(c2ccccc2)c2cc(Cl)ccc21 [diazepam, reference compound]", 4]
]}

====

Experimental System: contracturing effect of histamine (Cavia porcellus, UniProt P31389)
Construct: Segments measuring 5-6 cm were drawn form the end portion of the small intestine; from tissue; host or cells: guinea pig terminal small intestine (ileum)
Sequence (P31389 whole entry): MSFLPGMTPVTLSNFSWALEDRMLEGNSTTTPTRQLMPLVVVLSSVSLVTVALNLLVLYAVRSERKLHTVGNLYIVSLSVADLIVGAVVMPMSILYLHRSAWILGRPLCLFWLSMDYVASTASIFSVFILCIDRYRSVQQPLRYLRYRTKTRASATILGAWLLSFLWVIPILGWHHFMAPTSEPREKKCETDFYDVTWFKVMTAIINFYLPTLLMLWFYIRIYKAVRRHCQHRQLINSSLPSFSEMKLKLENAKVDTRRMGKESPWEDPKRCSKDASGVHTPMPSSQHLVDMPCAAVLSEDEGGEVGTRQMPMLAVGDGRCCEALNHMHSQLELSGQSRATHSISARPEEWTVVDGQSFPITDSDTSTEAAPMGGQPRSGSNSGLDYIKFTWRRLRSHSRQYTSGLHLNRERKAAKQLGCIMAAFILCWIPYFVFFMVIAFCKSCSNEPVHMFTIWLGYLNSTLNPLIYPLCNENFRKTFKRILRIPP
Assay Name: antihistaminic activity in vitro (contracturing effect of histamine on isolated guinea pig small intestine)
Design: species or system Guinea pigs
Measurement Parameters: vs histamine; guinea pig small intestine; 37° C.; test compounds 10^-5 M; read-out: Antihistaminic activity (pA2) (converted)
Where a name gives a salt, the structure may show the parent alone.
Decide by Kb: equal to or exceeding 8 µM means true, less means false.

Please review the entries below; each comes with its answer.
{"columns": ["Compound", "Experimental System", "Class Assignment"],
 "data": [
  ["Cc1cc(C(=O)O[C@H]2C[C@H]3CC[C@@H](C2)N3C)on1 [Compound 5, hydrochloride]", "contracturing effect of histamine (Cavia porcellus, UniProt P31389)", "true"],
  ["CCN1CCCC(NC(=O)c2cc(C)on2)C1 (centres unmarked) [Compound 14]", "contracturing effect of histamine (Cavia porcellus, UniProt P31389)", "true"],
  ["Cc1cc(C(=O)O[C@H]2C[C@H]3CC[C@@H](C2)N3C)no1 [Compound 8, hydrochloride]", "contracturing effect of histamine (Cavia porcellus, UniProt P31389)", "false"]
]}

From here, focus on the item given below.
// query Would you say Cc1cc(C(=O)OC2CCN(C)CC2)no1 [Compound 9, hydrochloride] shows Kb at minimum 8 µM?
// result true

====

Experimental System: 5-HT2 receptors (Rattus norvegicus, UniProt P14842)
Sequence (P14842 whole entry): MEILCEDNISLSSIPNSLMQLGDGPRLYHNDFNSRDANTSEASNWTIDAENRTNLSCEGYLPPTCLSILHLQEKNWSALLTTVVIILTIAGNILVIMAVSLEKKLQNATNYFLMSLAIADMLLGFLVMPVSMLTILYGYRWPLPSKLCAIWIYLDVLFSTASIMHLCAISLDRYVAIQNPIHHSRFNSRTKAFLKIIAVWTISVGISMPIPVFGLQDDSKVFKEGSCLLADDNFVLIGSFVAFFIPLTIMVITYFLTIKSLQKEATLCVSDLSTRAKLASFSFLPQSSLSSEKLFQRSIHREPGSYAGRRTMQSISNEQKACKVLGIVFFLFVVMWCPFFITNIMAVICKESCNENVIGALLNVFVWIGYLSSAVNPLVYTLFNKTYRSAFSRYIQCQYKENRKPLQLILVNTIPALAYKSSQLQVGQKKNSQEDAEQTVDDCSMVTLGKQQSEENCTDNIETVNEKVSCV
Result Type: pIC50
API: returns pIC50 as number; meaning -log10 of concentration in mol/L.

// query Requested read-out: pIC50. Entry: CN1[C@@H]2CC[C@H]1C[C@@H](OC(=O)c1c[nH]c3ccccc13)C2 [R, 3-endo-tropanyl indol-3-yl carboxylate, reference compound]
// result 4.60

====

Consider the following compounds and their measured Kb readings.
Experimental System: contracturing effect of acetylcholine (Cavia porcellus)
Construct: Segments measuring 5-6 cm were drawn form the end portion of the small intestine; from tissue; host or cells: guinea pig terminal small intestine (ileum)
Sequence (H0W1Z3 1-590): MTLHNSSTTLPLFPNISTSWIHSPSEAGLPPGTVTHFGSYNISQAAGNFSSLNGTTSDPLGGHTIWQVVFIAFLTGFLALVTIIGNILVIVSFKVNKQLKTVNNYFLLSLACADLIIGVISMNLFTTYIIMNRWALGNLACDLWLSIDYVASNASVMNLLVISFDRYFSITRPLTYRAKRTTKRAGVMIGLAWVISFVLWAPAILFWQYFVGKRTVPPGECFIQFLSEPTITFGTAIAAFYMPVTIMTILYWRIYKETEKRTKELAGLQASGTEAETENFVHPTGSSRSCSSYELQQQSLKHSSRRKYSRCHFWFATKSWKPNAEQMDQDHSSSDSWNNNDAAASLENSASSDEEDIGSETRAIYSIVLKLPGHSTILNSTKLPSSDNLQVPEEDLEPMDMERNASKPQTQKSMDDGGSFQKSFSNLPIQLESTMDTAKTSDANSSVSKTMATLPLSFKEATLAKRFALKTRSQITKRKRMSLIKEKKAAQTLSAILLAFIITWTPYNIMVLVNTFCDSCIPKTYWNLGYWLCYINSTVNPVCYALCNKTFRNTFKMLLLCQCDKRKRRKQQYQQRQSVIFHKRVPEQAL
Assay Name: anticholinergic activity in vitro (contracturing effect of acetylcholine on isolated guinea pig small intestine)
Set-up: species or system Guinea pigs
Where a name gives a salt, the structure may show the parent alone.
Reply numerically in µM, unit not repeated.

{"columns": ["Compound", "Kb [µM]"],
 "data": [
  ["Cc1cc(C(=O)O[C@H]2C[C@H]3CC[C@@H](C2)[N+]3(C)C)no1 [Compound 18]", 6.31]
]}

// query Requested read-out: Kb. Entry: CN1[C@@H]2CC[C@H]1C[C@@H](OC(=O)c1cc(OCc3ccccc3)no1)C2 [Compound 3, hydrochloride]
// result 2

// query Requested read-out: Kb. Entry: COc1cc(C(=O)O[C@H]2C[C@H]3CC[C@@H](C2)N3C)on1 [Compound 6, hydrochloride]
// result 12.6

// query Requested read-out: Kb. Entry: Cc1cc(C(=O)O[C@H]2C[C@H]3CC[C@@H](C2)N3C)no1 [Compound 8, hydrochloride]
// result 6.31

// query Requested read-out: Kb. Entry: Cc1cc(C(=O)N[C@H]2C[C@H]3CC[C@@H](C2)N3C)no1 [Compound 16]
// result 126

// query Requested read-out: Kb. Entry: Cc1cc(C(=O)O[C@H]2C[C@H]3CC[C@@H](C2)N3C)on1 [Compound 5, hydrochloride]
// result 31.6

// query Requested read-out: Kb. Entry: CN1[C@@H]2CC[C@H]1C[C@@H](OC(=O)c1c[nH]c3ccccc13)C2 [R, 3-endo-tropanyl indol-3-yl carboxylate, reference compound]
// result 15.8
